Biological target: T1, Hse1, P38753
T1 sequence (P38753 208-285, looked up): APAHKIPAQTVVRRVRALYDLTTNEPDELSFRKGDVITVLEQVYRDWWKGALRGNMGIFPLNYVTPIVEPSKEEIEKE
Test: SPOT array
Settings: median of control spots 1727
Observation Type: SPOT intensity
Please reply with the number alone, leaving off any unit.

// below: answered binders
{"Binder": "QGYPRQPQRPQRYHP", "Value Observed": 3}
{"Binder": "ANNQGPPNLPARDKS", "Value Observed": 0}
{"Binder": "EAEEAAPQLPSRSSA", "Value Observed": 0}
{"Binder": "ALKQKKIPPPFKPHL", "Value Observed": 0}
{"Binder": "PLQSKIPMLPSRRTM", "Value Observed": 3}

Field SPOT intensity (entry `KKAPPPVVKPKPRNF` ) reads 0

Field SPOT intensity (entry `NIKVLLNPKLGKPVK` ) reads 20

Field SPOT intensity (entry `LYKRKPILLPDPKPL` ) reads 2

Field SPOT intensity (entry `RRTRLRPPTPLSQLL` ) reads 17

Field SPOT intensity (entry `TIRRRAPLSLLESHT` ) reads 16

Field SPOT intensity (entry `PALPSLPPPPLLNVD` ) reads 0

Field SPOT intensity (entry `IKKRNKIRLPSGSPE` ) reads 6

Field SPOT intensity (entry `VPKEPAPAPPPEPDM` ) reads 3

Field SPOT intensity (entry `LLGRKRPVMERVVDI` ) reads 9
